- test_details: NCI Yeast Anticancer Drug Screen. Data for the mlh1 rad18 strain (AID 175)
- study_conditions: S. cerevisiae mlh1 rad18 strain growth inhibition; at 50.0 µM; active compounds read high
About 79,000 compounds went through this panel and 15% of them were active in at least one assay; those are over-represented in the sample as a whole.
Please go through the items and note down their growth inhibition.
Answers are plain numbers, in %.

[
  {
    "compound": "C[N+]1(CSC(=O)c2ccccc2)CCCCC1",
    "unit_of_measurement": "%",
    "growth inhibition": 24.9
  },
  {
    "compound": "COc1ccc2c(=O)c(-c3ccc(OC)c(OC)c3)c(C)oc2c1",
    "unit_of_measurement": "%",
    "growth inhibition": -4.85
  },
  {
    "compound": "Oc1ccc(-c2nnc(-c3ccc(O)cc3)nn2)cc1",
    "unit_of_measurement": "%",
    "growth inhibition": 10.9
  }
]

Parameters: items (list). Returns: growth inhibition for each item.
1. CCCCOC(=O)c1ccccc1
2. CC/C(CC(C)CC)=N\O (stereo not given)
3. c1ccc(C(N=NC(c2ccccc2)c2ccccc2)c2ccccc2)cc1

-- reply
1. 18.1
2. -5.75
3. 16.8

Hey, just so you know, these numbers are from PubChem BioAssay (NCI).
